Biological target: TGF-β receptors in mink lung epithelial cells
Experiment: competition with 125I-TGF-β2 for binding to mink lung epithelial cells
Ends that are not written are not given here.
Value type: IC50 (µM)

binder="ANFCSGPCPYLRSADTTHSTVLGLY (not fully specified; cysteine pairing not given here) [peptide β3^25 (41-65)]" observed_result=20

# credit: patent US20060233708A1
